The reported measurements were obtained from paper PMC9247443.

- experimentalTarget: human S1P4 (Homo sapiens)
- Construct: membrane preparation
- Sequence (O95977 1-384): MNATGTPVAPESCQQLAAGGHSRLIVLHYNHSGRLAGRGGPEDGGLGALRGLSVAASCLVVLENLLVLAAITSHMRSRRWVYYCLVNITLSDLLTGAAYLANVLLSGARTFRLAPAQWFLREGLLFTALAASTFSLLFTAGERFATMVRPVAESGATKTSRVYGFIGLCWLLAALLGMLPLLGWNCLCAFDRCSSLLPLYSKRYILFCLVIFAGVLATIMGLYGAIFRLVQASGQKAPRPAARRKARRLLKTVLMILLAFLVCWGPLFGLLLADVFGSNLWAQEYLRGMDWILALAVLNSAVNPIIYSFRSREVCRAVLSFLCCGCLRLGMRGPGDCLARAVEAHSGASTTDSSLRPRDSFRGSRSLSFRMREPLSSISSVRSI
- assay: [^35S]-GTPγS binding
- Type: biochemical
- measurementSetup: intrinsic activity relative to maximal S1P response (100%), mean ± SEM
- Source text: Stable clones of Chinese hamster ovary (CHO) cells expressing human S1P1 and S1P5 were generated by transfecting the cells with the N-terminal hemagglutinin-tagged receptor in pcDNA3.1 expression vectors followed by antibiotic selection for S1P1 and S1P5 and picking of clones using cyclic adenosine monophosphate assay, fluorescence-activated flow cytometry using the associated tag as well as functional [^35S]-GTPγS binding assays. […]
measuredEndpoint: Human S1P4 IA (%)

• NC(CO)(CCc1ccc(Sc2cccc(OCc3ccccc3)c2)cc1Cl)COP(=O)(O)O (stereo not shown) [KRP-203-p, KRP-203-phosphate] = 56.3
• CC(C)Oc1ccc(-c2nc(-c3cccc4c3CC[C@@H]4NCCO)no2)cc1C#N = 39.4
• CCCCCCCCc1ccc(CCC(N)(CO)COP(=O)(O)O)cc1 (stereo not shown) [FTY720-p, FTY720-phosphate] = 59.2

(A) CCc1cc(/C(C)=N/OCc2ccc(C3CCCCC3)c(C(F)(F)F)c2)ccc1CN1CC(C(=O)O)C1
(B) CCCCCCCOc1ccc(CCC(N)(CO)COP(=O)(O)O)cc1C(F)(F)F (stereo not shown)
(C) O=C(O)C[C@H]1CCc2c1[nH]c1ccc(OCc3ccc(C4CCCC4)c(C(F)(F)F)c3)cc21
(D) CCC/N=C1\S/C(=C\c2ccc(OC[C@H](O)CO)c(Cl)c2)C(=O)N1c1ccccc1C
**Q:** List from greatest to least Human S1P4 IA. Your task in answering is to list the labels in the requested order.
**A:** B, A, C, D
